Target: T1, human TNFR2 extracellular domain with C-terminal 10×His tag (human, UniProt P20333 23-257)
T1 construct: also called huTNFR2-His; His-tag-huTNFR2
T1 sequence: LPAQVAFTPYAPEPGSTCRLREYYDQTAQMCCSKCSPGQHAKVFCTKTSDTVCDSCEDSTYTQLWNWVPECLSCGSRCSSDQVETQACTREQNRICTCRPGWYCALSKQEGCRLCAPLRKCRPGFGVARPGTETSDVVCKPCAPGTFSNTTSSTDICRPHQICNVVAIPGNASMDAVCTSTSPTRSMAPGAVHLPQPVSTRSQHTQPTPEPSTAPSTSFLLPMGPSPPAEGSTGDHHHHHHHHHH
Test: BLI (Octet RED96), antibody captured on AHC biosensor, His-tag-huTNFR2 in solution, 1:1 model
A collection of binders and their measured kon
The answer is to be given in M⁻¹ s⁻¹; state only the numeric part.

Known kon results, listed for orientation:
Ask | Determine its reported kon: SB1901-69 humanized anti-TNFR2 antibody (antibody, V domains shown) VH: QVQLVQSGAEVKKPGASVKVSCKASGYTFTDDYIDWVRQATGQGLEWMGEIYPGSGNTYYNEKFKGRVTMTRDKSISTAYMELSSLRSEDTAVYYCARSQVYGKIAMDHWGQGTLVTVSS VL: DIVMTQSPDSLAVSLGERATINCRASESVDNSGNSFMHWYQQKPGQPPKLLIYRASNLESGVPDRFSGSGAGTDFTLTISSLQAEDVAVYYCQQSKEDPYTFGQGTKVEIK
Reply | 410000

Ask | Determine its reported kon: SB1901-80 humanized anti-TNFR2 antibody (antibody, V domains shown) VH: QVQLVQSGAEVKKPGASVKVSCKASGYTFTDDYIDWVRQAPGQGLEWIGEIYPGSGNTYYNEKFKGRVTMTRDTSTSTVYMELSSLRSEDTAVYYCARSQVYGKIAMDHWGQGTLVTVSS VL: DIVMTQSPDSLAVSLGERATINCRASESVDNSGNSFMHWYQQKPGQPPKLLIYRASNLESGVPDRFSGSGSRTDFTLTISSLQAEDVAVYYCQQSKEDPYTFGQGTKVEIK
Reply | 373000

Ask | Determine its reported kon: SB1901-68 humanized anti-TNFR2 antibody (antibody, V domains shown) VH: QVQLVQSGAEVKKPGASVKVSCKASGYTFTDDYIDWVRQATGQGLEWIGEIYPGSGNTYYNEKFKGRVTMTRDTSISTAYMELSSLRSEDTAVYYCARSQVYGKIAMDHWGQGTLVTVSS VL: DIVMTQSPDSLAVSLGERATINCRASESVDNSGNSFMHWYQQKPGQPPKLLIYRASNLESGVPDRFSGSGSRTDFTLTISSLQAEDVAVYYCQQSKEDPYTFGQGTKVEIK
Reply | 408000

Continuing:
Ask | Determine its reported kon: SB1901-72 humanized anti-TNFR2 antibody (antibody, V domains shown) VH: QVQLVQSGAEVKKPGASVKVSCKASGYTFTDDYIDWVRQATGQGLEWIGEIYPGSGNTYYNEKFKGRVTMTRDKSISTAYMELSSLRSEDTAVYYCARSQVYGKIAMDHWGQGTLVTVSS VL: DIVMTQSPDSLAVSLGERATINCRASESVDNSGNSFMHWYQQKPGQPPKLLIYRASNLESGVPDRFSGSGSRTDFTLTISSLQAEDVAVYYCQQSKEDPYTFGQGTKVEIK
Reply | 412000

Values compiled from patent US20250011448A1.
